# Tested target: T1, recombinant LILRB2 ECD (human, UniProt Q8N423 22-460)
# T1 construct: also called biotinylated LILRB2 ECD
# T1 sequence (Q8N423 22-460 limits assumed): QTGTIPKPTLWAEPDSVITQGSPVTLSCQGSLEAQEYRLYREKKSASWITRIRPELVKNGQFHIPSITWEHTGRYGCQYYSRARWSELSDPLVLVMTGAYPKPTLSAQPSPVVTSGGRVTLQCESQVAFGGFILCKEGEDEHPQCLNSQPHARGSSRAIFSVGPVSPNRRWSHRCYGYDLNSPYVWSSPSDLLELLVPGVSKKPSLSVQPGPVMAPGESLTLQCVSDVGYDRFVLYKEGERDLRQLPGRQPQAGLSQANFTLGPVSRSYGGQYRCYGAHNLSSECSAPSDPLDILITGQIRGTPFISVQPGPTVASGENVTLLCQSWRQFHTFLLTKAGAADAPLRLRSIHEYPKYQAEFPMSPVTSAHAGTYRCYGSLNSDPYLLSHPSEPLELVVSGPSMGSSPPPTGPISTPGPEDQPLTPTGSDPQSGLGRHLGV
# Assay summary: BLI, IgG on AHC sensor, ECD in solution
Listed here: items and their measured Kd.
Number in nM, nothing else.

Some entries whose results are on file:
[
  {
    "Binder": "A-003 (antibody, V domains shown, tested as IgG; also called parental antibody A-003) VH: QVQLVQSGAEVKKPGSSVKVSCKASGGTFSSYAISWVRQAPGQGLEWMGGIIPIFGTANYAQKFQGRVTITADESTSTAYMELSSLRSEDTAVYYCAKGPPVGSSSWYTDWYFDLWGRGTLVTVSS VL: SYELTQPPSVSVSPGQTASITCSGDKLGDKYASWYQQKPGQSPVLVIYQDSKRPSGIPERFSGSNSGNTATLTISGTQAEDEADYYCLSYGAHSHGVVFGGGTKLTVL",
    "Kd (nM)": 73.1
  },
  {
    "Binder": "A-004 (antibody, V domains shown, tested as IgG) VH: QVQLVQSGAEVKKPGSSVKVSCKASGGTFRTKAIAWVRQAPGQGLEWMGGIIPIFSTANYAPKFQGRVTITADESTSTAYMELSSLRSEDTAVYYCAKDLGTYSSGWPYYYGMDVWGQGTTVTVSS VL: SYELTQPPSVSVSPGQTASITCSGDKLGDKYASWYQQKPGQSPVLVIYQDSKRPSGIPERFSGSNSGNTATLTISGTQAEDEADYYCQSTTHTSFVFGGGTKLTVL",
    "Kd (nM)": 7.1
  }
]

Please turn your attention to the following entry.
query: Query Kd for A-024 (antibody, V domains shown, tested as IgG) VH: QVQLVQSGAEVKKPGSSVKVSCKASGYTFTGSAMSWVRQAPGQGLEWMGGILPIFGTSVYAQKFQGRVTITADESTSTAYMELSSLRSEDTAVYYCAKGPPVGSSSWYTDWYFDLWGRGTLVTVSS VL: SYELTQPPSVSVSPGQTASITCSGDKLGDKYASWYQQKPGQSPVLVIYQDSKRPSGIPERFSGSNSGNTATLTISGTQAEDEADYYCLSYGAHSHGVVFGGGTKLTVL
result: 3.6
